subject_of_test: truncated form of human Choline kinase α1 that includes residues 75-457 (Homo sapiens, UniProt P35790)
Construct: made in house
Sequence (P35790 75-457): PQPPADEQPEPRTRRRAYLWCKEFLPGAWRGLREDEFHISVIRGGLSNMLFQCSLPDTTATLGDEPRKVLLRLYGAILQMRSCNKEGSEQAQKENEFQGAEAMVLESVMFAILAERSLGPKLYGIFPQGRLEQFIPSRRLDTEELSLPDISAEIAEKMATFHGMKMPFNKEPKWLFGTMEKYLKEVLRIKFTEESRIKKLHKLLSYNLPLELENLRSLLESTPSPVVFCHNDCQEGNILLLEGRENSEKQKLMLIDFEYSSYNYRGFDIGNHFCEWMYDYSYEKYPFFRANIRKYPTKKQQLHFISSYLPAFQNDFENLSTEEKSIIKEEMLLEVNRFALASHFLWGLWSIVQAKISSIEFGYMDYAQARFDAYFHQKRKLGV
experiment_description: Kinase Assay, coupled (ATP regeneration) LDH/PK assay, NADH absorbance
Assay type: biochemical
run_parameters: Examples not designated with an asterisk; footnote prints version 1 of the Kinase Assay; read-out: IC50
pIC50: −log10 of the molar value.
Listing: pIC50 of selected compounds

>  <compound>
CN1CCCN(Cc2ccc(-c3ccc(S(=O)(=O)N4CCOCC4)cc3)c(C#N)c2)CC1 [Example 88]

>  <recorded_result>
> 6.70

$$$$
>  <compound>
COc1cccc(-c2cc(C(=O)N3CCCN(C)CC3)ccc2-c2ccc(CN3CCCN(C)CC3)cc2C#N)c1 [Example 74]

>  <recorded_result>
> 6.30

$$$$
>  <compound>
CN1CCCN(Cc2ccc(-c3ccc(CCC(=O)O)cc3)cc2)CC1 [Example 132]

>  <recorded_result>
> 4.30

$$$$

API: the following record is the query input.
[in] Find the recorded pIC50 belonging to CN(C)CCCNC(=O)c1ccc(-c2ccc(CN3CCCN(C)CC3)cc2C#N)cc1 [Example 30] and report it.
[out] > 7.00

###

# reported IC50; entries follow
subject_of_test: truncated form of human Choline kinase α1 that includes residues 75-457 (Homo sapiens)
Construct: made in house
experiment_description: Kinase Assay, coupled (ATP regeneration) LDH/PK assay, NADH absorbance
Assay type: biochemical
run_parameters: Examples designated with an asterisk (*): version 1 of the Kinase Assay, 200 nM enzyme; read-out: IC50

>  <given_smiles>
CN1CCCN(Cc2ccc(CCCCc3ccc(CN4CCCN(C)CC4)cc3)cc2)CC1

>  <IC50>
< 50 µM

$$$$
>  <given_smiles>
CN1CCCN(Cc2ccc(-c3ccccc3)c(F)c2)CC1

>  <IC50>
< 0.2 µM

$$$$
>  <given_smiles>
CN1CCCN(Cc2ccc(CN3CC[C@@H](O)C3)cc2)CC1

>  <IC50>
< 50 µM

$$$$

Shift focus to the following entry.
[in] What does the data say about its IC50? Entry: CN1CCCN(Cc2ccc(-c3ccncc3)cc2)CC1
[out] < 0.2 µM

###

subject_of_test: truncated form of human Choline kinase α1 that includes residues 75-457 (Homo sapiens)
Construct: made in house
experiment_description: Kinase Assay, coupled (ATP regeneration) LDH/PK assay, NADH absorbance
Format: biochemical
run_parameters: Examples designated with an asterisk (*): version 1 of the Kinase Assay, 200 nM enzyme; read-out: IC50
pIC50: −log10 of the molar value.
// reported pIC50 per item

>  <given_smiles>
CN1CCCN(Cc2ccc(-c3ccc(F)cc3)cc2)CC1

>  <pIC50>
> 4.30

$$$$
>  <given_smiles>
CN1CCCN(Cc2ccc(CNc3ccc(N4CCN(C)CC4)cc3)cc2)CC1

>  <pIC50>
> 6.70

$$$$
>  <given_smiles>
CN1CCCN(Cc2ccc(Cn3cncn3)cc2)CC1

>  <pIC50>
> 4.30

$$$$

[in] Would you kindly share the measured pIC50 for CN1CCCN(Cc2ccc(-n3cncn3)cc2)CC1 ?
[out] > 6.30

[in] Reported pIC50, molecule CN1CCCN(Cc2ccc(-c3ccc(C(=O)O)cc3)cc2)CC1 : ____
[out] > 4.30

###

Below, each entry is listed with its recorded pIC50.
subject_of_test: truncated form of human Choline kinase α1 that includes residues 75-457 (Homo sapiens)
Construct: made in house
experiment_description: Kinase Assay, coupled (ATP regeneration) LDH/PK assay, NADH absorbance
Assay type: biochemical
run_parameters: Examples not designated with an asterisk; footnote prints version 1 of the Kinase Assay; read-out: IC50
pIC50: −log10 of the molar value.

Some solved entries appear below for comparison.
>  <given_smiles>
CN1CCCN(Cc2ccc(-c3ccc(Oc4ccccc4N)cc3)c(C#N)c2)CC1

>  <pIC50>
> 5.70

$$$$
>  <given_smiles>
CN1CCCN(Cc2ccc(-c3ccc(C(=O)N4CCN(C)CC4)cc3)c(C#N)c2)CC1

>  <pIC50>
> 6.30

$$$$
>  <given_smiles>
CC(=O)Nc1ccc(-c2ccc(CN3CCCN(C)CC3)cc2C#N)cn1

>  <pIC50>
> 6.30

$$$$
>  <given_smiles>
CCOC(=O)Cc1ccc(-c2ccc(CN3CCCN(C)CC3)cc2)cc1

>  <pIC50>
> 4.30

$$$$
>  <given_smiles>
CC(=O)NNC(=O)CCc1ccc(-c2ccc(CN3CCCN(C)CC3)cc2C#N)cc1

>  <pIC50>
> 7.00

$$$$
>  <given_smiles>
CNC(=O)c1ccc(-c2ccc(CN3CCCN(C)CC3)cc2C#N)cc1

>  <pIC50>
> 6.70

$$$$

Here is the next item to consider.
[in] For the molecule shown here, CN1CCCN(Cc2ccc(-c3ccc(CN4CCCN(C)CC4)c(F)c3)cc2)CC1 , give the reported pIC50.
[out] > 6.70

###

subject_of_test: ChoKα protein (Homo sapiens)
Construct: made in house
experiment_description: Binding affinity by surface plasmon resonance (SensiQ Pioneer, FastStep)
measurement_label: Kd

Before answering, review these 8 worked examples.
>  <given_smiles>
CN1CCCN(Cc2ccc(-c3ccc(CN4CCCN(C)CC4)cc3F)cc2)CC1

>  <Kd>
< 200 nM

$$$$
>  <given_smiles>
CN1CCCN(Cc2ccc(-c3ccc(CN4CCCN(C)CC4)c(F)c3F)cc2)CC1

>  <Kd>
< 100 nM

$$$$
>  <given_smiles>
CN1CCCN(Cc2ccc(-c3ccc(CN4CCCN(C)CC4)c(Cl)c3)cc2)CC1

>  <Kd>
< 200 nM

$$$$
>  <given_smiles>
CN1CCCN(Cc2ccc(-c3ccc(CN4CCCN(C)CC4)cc3C#N)cc2)CC1

>  <Kd>
< 50 nM

$$$$
>  <given_smiles>
COC(=O)c1ccc(-c2ccc(CN3CCCN(C)CC3)cc2)cc1

>  <Kd>
< 60000 nM

$$$$
>  <given_smiles>
CN1CCCN(Cc2ccc(-c3cc(F)c(CN4CCCN(C)CC4)c(F)c3)cc2)CC1

>  <Kd>
< 60000 nM

$$$$
>  <given_smiles>
COc1ccc(-c2ccc(CN3CCCN(C)CC3)cc2)cc1

>  <Kd>
< 60000 nM

$$$$
>  <given_smiles>
CN1CCCN(Cc2ccc(-c3ccc(N4CCN(C)CC4)cc3)cc2)CC1

>  <Kd>
< 60000 nM

$$$$

[in] Test system ChoKα protein (Homo sapiens); read-out Kd; what value for CN1CCCN(Cc2ccc(-c3ccc(CN4CCCN(C)CC4)cc3C#N)c(F)c2)CC1 ?
[out] < 100 nM

[in] Form: Entry = CN1CCCN(Cc2ccc(-c3ccc(CN4CCCN(C)CC4)cc3)cc2)CC1 | System = ChoKα protein (Homo sapiens) | Kd = ____
[out] < 60000 nM

[in] Query the reported Kd for ChoKα protein (Homo sapiens); item: CN1CCCN(Cc2ccc(-c3ccc(C(=O)N4CCCN(C)CC4)cc3)cc2)CC1
[out] < 200 nM

###

subject_of_test: truncated form of human Choline kinase α1 that includes residues 75-457 (Homo sapiens)
Construct: made in house
experiment_description: Kinase Assay, coupled (ATP regeneration) LDH/PK assay, NADH absorbance
Format: biochemical
run_parameters: Examples not designated with an asterisk; footnote prints version 1 of the Kinase Assay; read-out: IC50
pIC50: −log10 of the molar value.
measurement_label: pIC50

>  <given_smiles>
Cc1cc(C(=O)N2CCCN(C)CC2)ccc1-c1ccc(CN2CCCN(C)CC2)cc1

>  <measurement_label>
pIC50

>  <recorded_result>
> 6.70

$$$$
>  <given_smiles>
CN1CCCN(Cc2ccc(-c3cccc4ccccc34)c(C#N)c2)CC1

>  <measurement_label>
pIC50

>  <recorded_result>
> 4.30

$$$$

Next compound, please.
[in] So what does the record say about pIC50 for CN1CCCN(Cc2ccc(-c3ccc(C(=O)N4CCCN(C)CC4)cc3-c3ccc(C#N)cc3)c(C#N)c2)CC1 ?
[out] > 6.30

###

The following molecules are shown together with reported Kd values.
subject_of_test: ChoKα protein (Homo sapiens, UniProt P35790)
Construct: made in house
experiment_description: Binding affinity by surface plasmon resonance (SensiQ Pioneer, FastStep)
run_parameters: SPR, 1:1 binding model, upper concentration 500 nM; read-out: Kd

Solved entries:
>  <molecule>
CN1CCCN(Cc2ccc(-c3ccc(C(=O)N4CCCN(C)CC4)cc3-c3ccc(CN4CCOCC4)cc3)c(C#N)c2)CC1

>  <recorded_result>
< 50 nM

$$$$
>  <molecule>
CN1CCCN(Cc2ccc(-c3ccncc3)cc2)CC1

>  <recorded_result>
< 60000 nM

$$$$
>  <molecule>
CN1CCCN(Cc2ccc(-n3cncn3)cc2)CC1

>  <recorded_result>
< 60000 nM

$$$$
>  <molecule>
CN1CCCN(Cc2ccc(-c3ccc(CN4CCC(CO)C4)cc3)c(C#N)c2)CC1 (stereo not shown)

>  <recorded_result>
< 200 nM

$$$$
>  <molecule>
CN1CCCN(Cc2ccc(-c3ccc(CNS(C)(=O)=O)cc3)c(C#N)c2)CC1

>  <recorded_result>
< 50 nM

$$$$

[in] API: value(readout= Kd, system= ChoKα protein (Homo sapiens, UniProt P35790), query= CN1CCCN(Cc2ccc(-c3ccc(CN4CCC(O)CC4)cc3)c(C#N)c2)CC1 )
[out] < 50 nM

[in] ChoKα protein (Homo sapiens, UniProt P35790) / Kd / CN1CCCN(Cc2ccc(-c3ccc(C(=O)NC4CC4)cc3)c(C#N)c2)CC1 : value?
[out] < 60000 nM

[in] // lookup Kd | system=ChoKα protein (Homo sapiens, UniProt P35790) | key= CN1CCCN(Cc2ccc(-c3ccc(CN)cc3)c(C#N)c2)CC1
[out] < 200 nM

[in] Find the measured Kd: item CN1CCCN(Cc2ccc(-c3ccc(C(=O)NN)cc3)c(C#N)c2)CC1 , target or system ChoKα protein (Homo sapiens, UniProt P35790).
[out] < 200 nM

[in] Please state recorded Kd (tested on ChoKα protein (Homo sapiens, UniProt P35790)) of CN1CCCN(Cc2ccc(CNc3ccc(N4CCN(C)CC4)cc3)cc2)CC1
[out] < 60000 nM

[in] Recorded Kd for CN1CCCN(Cc2ccc(-c3ccc(CN4CCN(C)CC4)cc3)c(C#N)c2)CC1 with ChoKα protein (Homo sapiens, UniProt P35790), please?
[out] < 200 nM

[in] Notebook entry, ChoKα protein (Homo sapiens, UniProt P35790) assay: Kd of CN1CCCN(Cc2ccc(CNc3cccc(C(N)=O)c3)cc2)CC1 = ?
[out] < 60000 nM
